- Test system: E. Coli. (50% human serum)
- test method notes: MIC, microdilution assay in presence of 50% human serum
- Assay type: cell-based
- stated conditions: Escherichia coli, 20 h, Gram-negativ
Listing of recorded MIC by entry.

The cases that follow already have their MIC on record.
compound | MIC
COc1c(NC(=O)c2ccc(NC(=O)c3ccc(NC(=O)[C@H](Cc4c[nH]nn4)NC(=O)c4ccc(NC(=O)/C(C)=C/c5ccc(O)cc5)cc4)cc3F)c(OC)c2O)ccc(C(=O)O)c1O | 1 µg/mL
COc1c(NC(=O)c2ccc(NC(=O)c3ccc(NC(=O)[C@H](Cc4c[nH]nn4)NC(=O)c4ccc(NC(=O)/C(C)=C/c5ccc(O)cc5)cc4)cc3Cl)c(OC)c2O)ccc(C(=O)O)c1O | 0.5 µg/mL
COc1c(NC(=O)c2ccc(NC(=O)c3c(F)cc(NC(=O)[C@H](Cc4c[nH]nn4)NC(=O)c4ccc(NC(=O)/C(C)=C/c5ccc(O)cc5)cc4)cc3F)c(OC)c2O)ccc(C(=O)O)c1O | 0.5 µg/mL
COc1c(NC(=O)c2ccc(NC(=O)c3ccc(NC(=O)[C@H](Cc4c[nH]nn4)NC(=O)c4ccc(NC(=O)/C(C)=C/c5ccc(O)cc5)cc4)cn3)c(OC)c2O)ccc(C(=O)O)c1O [Compound 0, reference compound] | 0.5 µg/mL
COc1c(NC(=O)c2ccc(NC(=O)c3ccc(NC(=O)[C@H](Cc4c[nH]nn4)NC(=O)c4ccc(NC(=O)/C(C)=C/c5ccc(O)cc5)cc4)cc3I)c(OC)c2O)ccc(C(=O)O)c1O | ≥ 8 µg/mL
COc1c(NC(=O)c2ccc(NC(=O)c3ccc(NC(=O)[C@H](Cc4c[nH]nn4)NC(=O)c4ccc(NC(=O)/C(C)=C/c5ccc(O)cc5)cc4)cc3Br)c(OC)c2O)ccc(C(=O)O)c1O | 1 µg/mL

Let me know recorded MIC for COc1c(NC(=O)c2ccc(NC(=O)c3ccc(NC(=O)[C@H](Cc4c[nH]nn4)NC(=O)c4ccc(NC(=O)/C(C)=C/c5ccc(O)cc5)cc4)cc3C(F)(F)F)c(OC)c2O)ccc(C(=O)O)c1O , thanks.
≥ 8 µg/mL

---

Observed MIC, system S. typhimurium TA100.

The cases that follow already have their MIC on record.
molecule | test target | MIC
COc1c(NC(=O)c2ccc(NC(=O)c3ccc(NC(=O)[C@H](Cc4c[nH]nn4)NC(=O)c4ccc(NC(=O)/C(C)=C/c5ccc(O)cc5)cc4)cc3Br)c(OC)c2O)ccc(C(=O)O)c1O [Compound 6] | S. typhimurium TA100 | 0.016 µg/mL
COc1c(NC(=O)c2ccc(NC(=O)c3ccc(NC(=O)[C@H](Cc4c[nH]nn4)NC(=O)c4ccc(NC(=O)/C(C)=C/c5ccc(O)cc5)cc4)cn3)c(OC)c2O)ccc(C(=O)O)c1O [Compound 0, reference compound] | S. typhimurium TA100 | ≤ 0.016 µg/mL

Let me know recorded MIC for COc1c(NC(=O)c2ccc(NC(=O)c3ccc(NC(=O)[C@H](Cc4c[nH]nn4)NC(=O)c4ccc(NC(=O)/C(C)=C/c5ccc(O)cc5)cc4)cc3F)c(OC)c2O)ccc(C(=O)O)c1O [Compound 1] , thanks.
≤ 0.016 µg/mL

Let me know recorded MIC for COc1c(NC(=O)c2ccc(NC(=O)c3c(F)cc(NC(=O)[C@H](Cc4c[nH]nn4)NC(=O)c4ccc(NC(=O)/C(C)=C/c5ccc(O)cc5)cc4)cc3F)c(OC)c2O)ccc(C(=O)O)c1O [Compound 2] , thanks.
≤ 0.016 µg/mL
